B1: EEHEE_rd3_0130 (parent)
chain: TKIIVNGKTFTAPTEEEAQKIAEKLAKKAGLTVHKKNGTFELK

# Variants of: B1
# Method Notes: folding stability dG (cDNA display proteolysis); higher = more stable
# Run Conditions: PBS, room temperature
Hi, to clarify the labels: Met covers folding stability dG from 0.2 kcal/mol upward, Not met covers anything below 0.2 kcal/mol.

Problem: Does the variant TKIIVNGKTFTAPTEEEAQKIAEKLAKKAGLTVHKKNGTFELN [K43N] have recorded folding stability dG that is 0.2 kcal/mol or more?
Result: Met

Problem: Does the variant TKIIVNGKTFTAPTEEEAPKIAEKLAKKAGLTVHKKNGTFELK [Q19P] have recorded folding stability dG that is 0.2 kcal/mol or more?
Result: Not met

Problem: Does the variant TKIIVNGKTFTAPTTEEAQKIAEKLAKKAGLTVHKKNGTFELK [E15T] have recorded folding stability dG that is 0.2 kcal/mol or more?
Result: Met

Problem: Does the variant TKIIVNGKTFTAPTEENAQKIAEKLAKKAGLTVHKKNGTFELK [E17N] have recorded folding stability dG that is 0.2 kcal/mol or more?
Result: Not met

Problem: Does the variant TKIIVNAKTFTAPTEEEAQKIAEKLAKKAGLTVHKKNGTFELK [G7A] have recorded folding stability dG that is 0.2 kcal/mol or more?
Result: Not met

Problem: Does the variant TGIIVNGKTFTAPTEEEAQKIAEKLAKKAGLTVHKKNGTFELK [K2G] have recorded folding stability dG that is 0.2 kcal/mol or more?
Result: Not met

Problem: Does the variant TKIIVNGKTFTAPTEEEAQKIAEKLNKKAGLTVHKKNGTFELK [A26N] have recorded folding stability dG that is 0.2 kcal/mol or more?
Result: Not met

Problem: Does the variant TKIIVNGKTFTAPTEEKAQKIAEKLAKKAGLTVHKKNGTFELK [E17K] have recorded folding stability dG that is 0.2 kcal/mol or more?
Result: Met

Problem: Does the variant TKIIVNGKTFTAPTEEEAQKIAEKLAKKAGLTVHKKNGTFQLK [E41Q] have recorded folding stability dG that is 0.2 kcal/mol or more?
Result: Not met

Problem: Does the variant TKIIVNGKTFTAPTEEPAQKIAEKLAKKAGLTVHKKNGTFELK [E17P] have recorded folding stability dG that is 0.2 kcal/mol or more?
Result: Not met

Problem: Does the variant FKIIVNGKTFTAPTEEEAQKIAEKLAKKAGLTVHKKNGTFELK [T1F] have recorded folding stability dG that is 0.2 kcal/mol or more?
Result: Met

Measured values drawn from the MegaScale stability set (Tsuboyama et al. 2023) for this set.
